Target or test system: Histone-lysine N-methyltransferase SETDB1 (Homo sapiens)
Protocol summary: Binding affinity to N-terminally biotinylated human SETDB1 Tudor domain (197 to 403 residues) expressed in Escherichia coli BL21(DE3)-pRARE2 cells by SPR analysis
Where a SMILES comes first, the peptide text is derived from it. [ ]: non-standard residue; d: D form. The star is where a group is joined. X1 = CC(=O)NCc1ccccc1-n1c(C)nnc1CN*; Lys(Me2) = CN(C)CCCC[C@H](N)C(=O)O
Flag rule - Kd less than 3 mM flags yes; the remaining entries get no.

Known results for molecules:
CC(=O)NCc1cc(C#N)ccc1-n1c(C)nnc1C	no
CC(=O)NCc1ccccc1-n1c(C)nnc1C	no
CC(=O)NCc1cc(Br)ccc1-n1c(C)nnc1C	yes
CC(=O)NCc1cc(C)ccc1-n1c(C)nnc1C	no
CC(=O)NCc1cc(Cl)ccc1-n1c(C)nnc1C	yes

From here, focus on the item given below.
Q: Please indicate whether the reported Kd of CC(=O)NCc1ccccc1-n1c(C)nnc1CNC(=O)CNC(=O)[C@@H](NC(=O)[C@H](CO)NC(=O)[C@@H](N)CCCCN(C)C)[C@@H](C)O (H-[Lys(Me2)]STG-X1) is strictly below 3 mM.
A: yes

* * *

Target or test system: Histone-lysine N-methyltransferase SETDB1 (Homo sapiens, UniProt Q15047)
Protocol summary: Binding affinity to N-terminal His6-tagged human SETDB1 Tudor domain (197 to 403 residues) expressed in Escherichia coli BL21(DE3)-pRARE2 cells by ITC assay
Recorded endpoint: Kd (mM)
Numbers only, in mM.

Q: I would be grateful if you could share the reported Kd for CC(=O)NCc1ccccc1-n1c(C)nnc1C .
A: 3.5

* * *

Target or test system: Histone-lysine N-methyltransferase SETDB1 (Homo sapiens)
Protocol summary: Binding affinity to N-terminal His6-tagged human SETDB1 Tudor domain (197 to 403 residues) expressed in Escherichia coli BL21(DE3)-pRARE2 cells assessed as induction of HSQC shift at 5 mM by 1H-15 N HSQC-TROSY NMR spectroscopy
Active and inactive are the calls of the source. The rule behind the calls is not given here. Where a SMILES comes first, the peptide text is derived from it. [ ]: non-standard residue; d: D form. The star is where a group is joined. X1 = CC(=O)NCc1ccccc1-n1c(C)nnc1CN*; Lys(Me2) = CN(C)CCCC[C@H](N)C(=O)O
Returns: one label drawn from label 1 for active, label 0 for inactive

Known results for molecules:
Cc1nnc2n1-c1ccccc1COC2	label 1
CC(=O)NCc1ccccc1-n1c(C)nnc1C	label 1
Cc1nnc(C)n1-c1ccccc1C(=O)O	label 0
Cc1nnc(C)n1-c1ccccc1CNS(C)(=O)=O	label 1
CC(=O)NCc1ccccc1-n1c(C)nnc1CNC(=O)CNC(=O)[C@@H](NC(=O)[C@H](CO)NC(=O)[C@@H](N)CCCCN(C)C)[C@@H](C)O (H-[Lys(Me2)]STG-X1)	label 1

From here, focus on the item given below.
Q: Which outcome was assigned to CNC(=O)NCc1ccccc1-n1c(C)nnc1C in this test?
A: label 0
